- Test system: RPMI-8226 cells
- methodNotes: Bortezomib–EGCG combination matrix, ATP luminescence cell viability
- Type: cell-based, human
- details: read-out: Btz IC50; RPMI-8226 cells, 48 h, EGCG 425 nM (0.4 μM)
measurementKind: IC50 (nM)
Entry rule: numbers only, all in nM.

IC50 for CC(C)C[C@H](NC(=O)[C@H](Cc1ccccc1)NC(=O)c1cnccn1)B(O)O [bortezomib, reference compound] ?
7

* * *

- methodNotes: Pharmacokinetics of ascorbic acid
- Assay type: in vivo, mice
- details: male, CB-17 SCID, mouse, plasma, po, 40 mg/kg
measurementKind: Tmax (h)
Express it in h; write the number only.

Entry O=C1O[C@H]([C@@H](O)CO)C(O)=C1O [ascorbic acid] : reported Tmax = ?
4

* * *

- methodNotes: Pharmacokinetics of EGCG in mice
- Format: in vivo
- details: read-out: mean Cmax; SC 50 mg/kg, naïve male CB17 SCID mice, second study
measurementKind: Cmax (µM)
Give a bare numeral; the unit µM is implied.

Tell me the measured Cmax of O=C(O[C@@H]1Cc2c(O)cc(O)cc2O[C@@H]1c1cc(O)c(O)c(O)c1)c1cc(O)c(O)c(O)c1 [EGCG, epigallocatechin gallate] , please.
26

* * *

- methodNotes: Pharmacokinetics of EGCG in mice
- Assay type: in vivo
- details: read-out: mean Cmax; SC 50 mg/kg, naïve male CB17 SCID mice, first study
measurementKind: Cmax

Endpoint output: Cmax of O=C(O[C@@H]1Cc2c(O)cc(O)cc2O[C@@H]1c1cc(O)c(O)c(O)c1)c1cc(O)c(O)c(O)c1 [EGCG, epigallocatechin gallate] . Value?
33.7 µM

Hey, just so you know, these numbers are from paper PMC3215871.
